System: CCRF-CEM leukemia
Experimental protocol: NCI-60 one-dose screen, 48 h (100 = growth as untreated, 0 = no growth, -100 = all killed)
Test context: 10 µM unless noted
About 83,000 compounds went through this panel and 20% of them were active in at least one assay; those are over-represented in the sample as a whole.
Decision: growth compared against 60%; not below it gives T, below it gives F.

Illustrative cases are given below, each with its answer.
C=CCn1c(SCC(=O)Nc2ccc(/C(C)=N/O)cc2)nnc1-c1cc(-c2ccc(S(N)(=O)=O)cc2)nc2ccccc12 : F
CCOC(=O)c1cnc2c(N=Nc3ccc(OC)cc3)c(N)nn2c1N : T
Cc1ccc(S(=O)(=O)c2nc(-c3ccccc3)oc2Sc2nc3ccccc3s2)cc1 : F
COc1cc(-c2nc3c(ncc4ccc(=O)n(-c5ccccc5)c43)s2)cc(OC)c1OC : T
Cc1ccc(S(=O)(=O)N2CCC(=O)c3ccccc32)cc1 : T

# input Textbook exercise: given the entry COc1ccc(-c2cc(-c3ccccc3)nc(N3CCN(CCNc4ccnc5cc(Cl)ccc45)CC3)n2)cc1 , state whether its growth is greater than or equal to 60%.
# output F

# input Textbook exercise: given the entry c1ccc2c(c1)CCCc1nnc3nc4ccccc4n3c1-2 , state whether its growth is greater than or equal to 60%.
# output F

# input Textbook exercise: given the entry Cc1cccc(N2CCC(=O)NC2=S)c1 , state whether its growth is greater than or equal to 60%.
# output T

# input Textbook exercise: given the entry COc1ccc(Cn2cc3c(c2-c2ccccc2)CCc2cnoc2-3)cc1 , state whether its growth is greater than or equal to 60%.
# output F
